Data provenance is PubChem BioAssay (NCI).

# Tested on: MDA-MB-231 breast
# measurement-notes: NCI-60 one-dose screen, 48 h
# stated-conditions: 10 µM unless noted
Compounds without any hit were thinned out: in the full panel of roughly 83,000, 20% have a hit. Activity calls are given as the source filed them. How the source made its calls: active means growth percent below 10; inactive means the rest.
Please answer using one outcome listed in t = active, f = inactive

Take a look at these entries with their results.
| compound | target-or-test-system | group-label |
| --- | --- | --- |
| O=[N+]([O-])c1ccc(OCc2ccc(S(=O)(=O)F)c(Cl)c2)c(Cl)c1 | MDA-MB-231 breast | f |
| CC(=O)Nc1nc2c(s1)C1=CC[C@H]3[C@@H]4CC[C@H](OC(C)=O)[C@@]4(C)CC[C@@H]3[C@@]1(C)CC2 | MDA-MB-231 breast | f |
| C[N+]1(CC#CC[N+]2(C)CCCC2)CCCC1 | MDA-MB-231 breast | f |

Task: So what was the verdict on O=[N+]([O-])c1ccc(CI)cc1 in this test?
Result: f

Task: Which outcome did this test record for the compound [N-]=[N+]=CC(=O)CCC(=O)C=[N+]=[N-] ?
Result: f

Task: # lookup: test call for C[C@]12CC[C@H]3[C@@H](C[C@@H]4SC(Nc5ccccc5)=N[C@@]45C/C(=N/O)CC[C@]35C)[C@@H]1CCC2=O
Result: f

Task: # outcome recorded in this test, key = CCOP(=O)(OCC)C(=O)N(CC)CC
Result: f

Task: For CC[PH+](CC)CC.O=COC1OC([S-])C(OC=O)C(OC=O)C1OC=O.[Au+] (stereo not drawn) , what call appears in the results of this test?
Result: t

Task: Test call, this compound: O=C(O)CNCP(=O)(O)O
Result: f

Task: Returns: the outcome recorded for CC[C@H](C)[C@H](NC(=O)[C@H]1CCCCN1C)C(=O)N(C)[C@H](CCc1nc(C(=O)N[C@@H](Cc2ccccc2)C[C@H](C)C(=O)O)cs1)C(C)C in this assay.
Result: f

Task: Tell me the assay call for CC[C@H](C)[C@H](NC(=O)[C@H]1CCCCN1C)C(=O)N(C)[C@H](C(=O)NC12CC(C(=O)N[C@@H](Cc3ccccc3)C[C@H](C)C(=O)OC)(C1)C2)C(C)C please.
Result: f

Task: Please share the test call associated with CNC(=O)Oc1ccc(Cl)cc1SSc1cc(Cl)ccc1OC(=O)NC .
Result: f

Task: Would you mind telling me which call this test gave CC[C@H](C)[C@H](NC(=O)[C@H]1CCCCN1C)C(=O)N(C)[C@H](C[C@@H](OC(C)=O)c1nc(C(=O)NC23C4C5C2C2C3C4C52C(=O)OC)cs1)C(C)C (stereo partly drawn) ?
Result: f

Task: Dear colleague, could you share the recorded outcome for C[C@]12CC[C@H]3[C@@H](C[C@@H]4SC(Nc5cccc(F)c5)=N[C@@]45CC(=O)CC[C@]35C)[C@@H]1CCC2=O when you have a moment?
Result: f

Task: # lookup: test call for O=P1(N(CCCl)CCCl)NCCCO1 (stereo not drawn)
Result: f

Task: For CNC(=O)O/N=C(\SC)C(=O)N(C)C , what call appears in the results of this test?
Result: f

Task: Hi team, can someone confirm the assay call for C#COc1cccc(Nc2ncnc3cc(NC(=O)CF)ccc23)c1 ?
Result: f

Task: Could you kindly confirm the outcome this assay logged for CO[C@H]1[C@H](O[C@@H]2C[C@@H]3C/C=C/C(=O)O[C@@H](CO)C[C@H](O)[C@@H]4C[C@H](C)[C@H](C/C=C\C=C\[C@H](C)C[C@H](C2)O3)O4)O[C@@H](C)[C@H](O)[C@H]1O ?
Result: f
